# Target Entity: M. smegmatis ribosomes
# Method Summary: bacterial coupled transcription/translation assay, luciferase reporter (in vitro translation)
# Condition Label: protein synthesis by in vitro translation reaction, M. smegmatis ribosomes, FIG. 4
Property: IC50 (µM)

Molecule: CCN1CCN(Cc2csc(-c3ccccc3)n2)CC1 [Compound Nr. 8]
Target Entity: M. smegmatis ribosomes
Reported Measurement: 4.8

Molecule: O=C(N[C@H](CO)[C@H](O)c1ccc([N+](=O)[O-])cc1)C(Cl)Cl [chloramphenicol, reference compound]
Target Entity: M. smegmatis ribosomes
Reported Measurement: 9.2

Molecule: Cc1nc(CN2CCN(Cc3csc(-c4ccccc4)n3)CC2)cs1 [Compound Nr. 2]
Target Entity: M. smegmatis ribosomes
Reported Measurement: 8.9

// provenance: patent US20220055997A1
